These entries and their values trace back to the array DNA melting data of Ke et al. (doi:10.1101/2024.01.08.574731).

Each entry below lists one item and its recorded Tm value.
Test: melting temperature; fluorescence melt of hairpins on a sequencing array, two-state fit, raised by 9.35 °C to match UV melts
Settings: sodium 0.088 M
readoutKind: Tm (°C)

{"columns": ["residueSequence", "readoutUnit", "reportedValue"],
 "data": [
  ["GATCAGATACTGATC ((((((...))))))", "°C", 50.6],
  ["GATCATTACAATGATC ((((((....))))))", "°C", 49.7],
  ["GCTCACGAAAGTGGGAGC ((((((....)))..)))", "°C", 49.9],
  ["GATCGACCATCGATC ((((((...))))))", "°C", 49.6],
  ["GTCCGGCGAAAGCCAGAC (((.(((....))).)))", "°C", 50.7],
  ["GCCATTGGAAACAGTGGC ((((.((....)).))))", "°C", 50.7]
]}

---

Each entry below lists one item and its recorded folding enthalpy value.
Assay: folding enthalpy; higher = less favourable; fluorescence melt of hairpins on a sequencing array, two-state fit
Conditions: sodium 0.088 M

{"columns": ["residueSequence", "folding enthalpy / kJ/mol"],
 "data": [
  ["GGCGCTACGAAAGTAGCC (((..(((....))))))", -39.5],
  ["GGACATGGAAACATGCCC ((.((((....)))).))", -98.1],
  ["GATCGTAACAACGATC ((((((....))))))", -148],
  ["GATCGTTGGAACGATC ((((((....))))))", -177],
  ["GTGCTCGAAAGAGATCAC ((((((....)))..)))", -57],
  ["GTTGTTCGAAAGAATAAC (((.(((....))).)))", -132],
  ["GCCAGGCGAAAGCATAGC ((.(.((....)).).))", -46.5],
  ["GCGAAAATCGC ((((...))))", -58.9],
  ["GGCACCGGAAACGGCGCC (((.(((....))).)))", -220],
  ["GGTTTTACGAAAGTAACC (((..(((....))))))", -49.2],
  ["GATCTCCGTTGAGATC ((((((....))))))", -149],
  ["GATACTGAAAAGTATC ((((((....))))))", -171],
  ["GGACAAGGAAACCTGTCC (((((.(....).)))))", -131],
  ["GTAAGCGAAAGCTCTAC ((((((....))).)))", -49.9],
  ["GCGGTCCACCGC ((((....))))", -110],
  ["GATCACGACGGTGATC ((((((....))))))", -158],
  ["GCACCCGAAAGGGGCTGC ((((((....)))..)))", -75.1],
  ["GATCCGTCACCGGATC ((((((....))))))", -174],
  ["GGAGCAGGAAACCACTCC ((((..(....)..))))", -48.1],
  ["GTTGGAGGAAACTCCGAC ((.((((....)))).))", -170],
  ["GCGAAACATCGC ((((....))))", -89.8],
  ["GGGAGTGGAAACATTCCC ((((.((....)).))))", -140],
  ["GCTTGGTCGAAAGACAGC (((..(((....))))))", -61.8],
  ["GCCTAAGGAAACTTAGGC (((((((....)))))))", -168],
  ["ACTTCGAAAGAAGT (((((....)))))", -87.2],
  ["GATCATGGACATGATC ((((((....))))))", -170],
  ["GAATCTGGAAACAGGTTC (((.(((....))).)))", -132],
  ["GGACCGGGAAACCAGTCC ((((.((....)).))))", -98.1],
  ["GCCCACGAAAGTGGAGGC ((((((....)))..)))", -64.9],
  ["GATCGCCGCCGCGATC ((((((....))))))", -150],
  ["GACACCGAAAGGTGAGTC ((((((....)))..)))", -39.2],
  ["GCTCTCGAAAGAGTCAGC ((((((....)))..)))", -61.5],
  ["GGTCCTCGAAAGAGAACC (((.(((....))).)))", -135],
  ["AGGTAGAAATACCT (((((....)))))", -60.8],
  ["GGAGCTGGAAACAGCCCC ((.((((....)))).))", -101],
  ["TACCTGAAAAGGTA (((((....)))))", -62],
  ["GGCACTCGAAAGAGCGCC (((.(((....))).)))", -222]
]}
